Value source: paper PMC11758220

SYSTEM TESTED: Aster-C (Homo sapiens, UniProt Q8IYS0)
Construct: -C(318-504); GST (PreScission-cleavable) (N, cleaved yes); made in house; host or cells: E. coli OverExpress C41
Sequence (Q8IYS0 318-504): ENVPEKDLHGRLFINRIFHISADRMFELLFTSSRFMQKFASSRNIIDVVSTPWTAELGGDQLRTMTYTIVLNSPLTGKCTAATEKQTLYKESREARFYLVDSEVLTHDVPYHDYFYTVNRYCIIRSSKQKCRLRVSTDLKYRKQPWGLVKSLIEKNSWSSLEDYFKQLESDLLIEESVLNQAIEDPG
EXPERIMENT: Fluorescence polarisation (FP) competition with NBD-cholesterol, Aster-C
Type: binding
EXPERIMENTAL CONDITIONS: single dose, Dose = 10 µM
Kindly supply the reported inhibition at 10 µM values for the records listed here.
Record the result as a number with its unit.

In plain terms, C[C@]12CC[C@@H](O)C[C@H]1CCc1c2[nH]c2c(F)cc(Cl)cc12 [Compound 10i] has a documented inhibition at 10 µM of -1.6%

In plain terms, COc1ccc2[nH]c3c(c2c1)CC[C@@H]1C[C@H](O)CC[C@]31C [Compound 10f] has a documented inhibition at 10 µM of 0%

In plain terms, Cc1ccc2[nH]c3c(c2c1)CC[C@@H]1C[C@H](O)CC[C@]31C [Compound 10e] has a documented inhibition at 10 µM of 1.6%

In plain terms, CC12CCC3CC1CCC21C(=Nc2ccc(N4CCOCC4)cc21)O3 (racemic) [Compound 19a] has a documented inhibition at 10 µM of -5%

----------
Kindly supply the reported STARD5 (DSF) ΔTmmax values for the records listed here.
SYSTEM TESTED: STARD5 (Homo sapiens, UniProt Q9NSY2)
Construct: STARD5(6-213); host or cells: E. coli BL21(DE3)
Sequence (Q9NSY2 6-213): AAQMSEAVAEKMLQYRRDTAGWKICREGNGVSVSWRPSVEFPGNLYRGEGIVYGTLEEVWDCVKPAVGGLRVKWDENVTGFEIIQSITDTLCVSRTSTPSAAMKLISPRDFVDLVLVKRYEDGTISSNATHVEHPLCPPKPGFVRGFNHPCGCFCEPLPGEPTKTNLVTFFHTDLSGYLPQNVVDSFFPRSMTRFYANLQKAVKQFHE
EXPERIMENT: Differential scanning fluorimetry (DSF), STARD5
Assay type: binding
EXPERIMENTAL CONDITIONS: maximal thermal shift
State the answer as a number, implicitly in °C.

In plain terms, CCCCCNc1ccc2c(c1)[C@@]13CC[C@@H]4C[C@@H](CC[C@@]41C)OC3=N2 [Compound 19c] has a documented STARD5 (DSF) ΔTmmax of 4.8

In plain terms, CC12CCC3CC1CCC21C(=Nc2ccc(NCc4ccccc4)cc21)O3 (centres unmarked) [Compound 19b] has a documented STARD5 (DSF) ΔTmmax of 5.3

In plain terms, CC12CCC3CC1CCC21C(=Nc2ccc(N4CCOCC4)cc21)O3 (racemic) [Compound 19a] has a documented STARD5 (DSF) ΔTmmax of 3.7

In plain terms, CCCCN(C)c1ccc2c(c1)[C@@]13CC[C@@H]4C[C@@H](CC[C@@]41C)OC3=N2 [Compound 19d] has a documented STARD5 (DSF) ΔTmmax of 7.4

In plain terms, CC12CCC3CC1CCC21C(=Nc2ccc(Br)cc21)O3 (single isomer, unassigned; (+)) [(+)-15b] has a documented STARD5 (DSF) ΔTmmax of 1.1

In plain terms, CC12CCC3CC1CCC21C(=Nc2ccc(N4CCOCC4)cc21)O3 (single isomer, unassigned; (+)) [(+)-19a] has a documented STARD5 (DSF) ΔTmmax of 1.7

In plain terms, CC(C)(C)OC(=O)N1CCN(c2ccc3c(c2)C24CCC5CC(CCC52C)OC4=N3)CC1 (centres unmarked) [Compound 19e] has a documented STARD5 (DSF) ΔTmmax of 1.9

In plain terms, C[C@]12CC[C@@H]3C[C@H]1CC[C@@]21C(=Nc2ccc(N4CCN(Cc5ccncc5)CC4)cc21)O3 [Compound 24] has a documented STARD5 (DSF) ΔTmmax of 0.44

In plain terms, C[C@@]12CC[C@H]3C[C@@H]1CC[C@]21C(=Nc2ccc(Br)cc21)O3 [(−)-15b] has a documented STARD5 (DSF) ΔTmmax of 1.3

In plain terms, CC12CCC3CC1CCC21C(=Nc2ccc(N4CCOCC4)cc21)O3 (single isomer, unassigned; (-)) [(−)-19a] has a documented STARD5 (DSF) ΔTmmax of 5.2

In plain terms, COc1ccc(-c2ccc3c(c2)C24CCC5CC(CCC52C)OC4=N3)cc1 (centres unmarked) [Compound 21b] has a documented STARD5 (DSF) ΔTmmax of 0.15
